- Tested on: NCI-H322M lung
- measurement notes: NCI-60 one-dose screen, 48 h
- condition label: 10 µM unless noted
Compounds without any hit were thinned out: in the full panel of roughly 83,000, 20% have a hit. Activity calls are given as the source filed them. How the source made its calls: active means growth percent below 10; inactive means the rest.
Outcome codes: True for active, False for inactive

{"molecule": "Cc1cc(Nc2nc(C(=O)Nc3ccccc3)nc3ccccc23)n[nH]1", "classification": "False"}
{"molecule": "COc1ccc(NC(=O)/N=c2\\oc3c(OC)cccc3cc2-c2cc3ccccc3[nH]2)cc1", "classification": "False"}
{"molecule": "O=S(=O)(NCCNc1cc(-c2cn(-c3ccccc3)nc2-c2ccccc2)ccn1)c1ccc(F)cc1", "classification": "False"}
{"molecule": "N#CC1=C(N)OC2=C(C(=O)CCC2)C1c1ccco1 (stereo not drawn)", "classification": "False"}
{"molecule": "COc1cccc(/C=C2\\SC(N3CCN(c4ccccn4)CC3)=NC2=O)c1", "classification": "False"}
{"molecule": "CC/C=C\\C/C=C\\C[C@H](O)C/C=C1/C(=O)C=C[C@H]1C/C=C\\CCC(=O)OC", "classification": "False"}
{"molecule": "CN(C)c1ccc(C2CC(c3ccccc3)=NN2/C=C2\\SC(=O)NC2=O)cc1 (stereo not drawn)", "classification": "False"}
{"molecule": "COc1ccc(/C=C/C(=O)c2ccc(B(O)O)cc2)cc1O", "classification": "False"}
{"molecule": "O=C1Nc2cc(Cl)ccc2/C1=C/c1ccc(N2CCOCC2)s1", "classification": "False"}
{"molecule": "Cc1cc(C)c(NC(=O)c2sc3nc4c(cc3c2N)CN(Cc2ccccc2)CC4)c(C)c1", "classification": "False"}
{"molecule": "c1ccc2c(c1)Oc1ccccc1C2C1c2ccccc2Oc2ccccc21", "classification": "False"}
{"molecule": "COc1ccc2c(c1)C(=O)/C(=C/c1ccc(O)cc1)O2", "classification": "False"}
{"molecule": "Cc1cc(N/C=c2\\sc3ncnn3c2=O)no1", "classification": "False"}
{"molecule": "CCO/C=N/NC(=O)c1ccncc1", "classification": "False"}
{"molecule": "CCCCCCCCCN1C(=O)/C(=c2\\sc3n(c2=O)C2C(NN=3)N(CC)C(=O)N2CC)c2ccccc21 (stereo not drawn)", "classification": "False"}
{"molecule": "Nc1c(C(=O)Nc2cccc(C(F)(F)F)c2)sc2nc3c(cc12)C(O)CCC3 (stereo not drawn)", "classification": "False"}
{"molecule": "Clc1ccc([I+]c2ccc(Cl)cc2Cl)c(Cl)c1", "classification": "False"}
{"molecule": "O=c1oc2cc(OS(=O)(=O)c3ccc(F)cc3)ccc2c2c1CCCCC2", "classification": "False"}
{"molecule": "COc1ccc(/C=C/c2nc(N3CCOCC3)c3cc(F)c(F)cc3n2)cc1OC", "classification": "False"}
{"molecule": "C/C(=C\\c1csc(C)n1)[C@@H]1C[C@@H]2O[C@]2(C)CCC[C@H](C)[C@H](O)[C@@H](C)C(=O)C(C)(C)[C@@H](O)CC(=O)N1", "classification": "True"}
{"molecule": "COc1ccc([N+](=O)[O-])c(/C=C/C(=O)c2ccccn2)c1", "classification": "False"}
{"molecule": "Clc1ccc(/C=C/c2nc(N3CCOCC3)c3nc(Cl)c(Cl)cc3n2)cc1", "classification": "False"}
{"molecule": "COc1ccc(-n2c(C)cc(-c3ccccc3)c2C)cc1", "classification": "False"}
{"molecule": "CNC(=O)c1cc(Oc2ccc3c(c2)sc2nc(-c4ccc(Cl)cc4)cn23)ccn1", "classification": "False"}
{"molecule": "C=CCc1cc(Cl)cc2c(OC(C)=O)c(C(C)=O)c(-c3ccccc3)nc12", "classification": "False"}
{"molecule": "COc1ccc2c(c1)NC(=O)CN2c1nc(C)nc2ccccc12", "classification": "False"}
{"molecule": "O=C1C2=C(C(=O)c3c(O)ccc(O)c31)N(c1cccnc1)Cc1ccccc1O2", "classification": "False"}
{"molecule": "CN(C)CCCNC(=O)C(c1ccccc1)c1ccccc1", "classification": "False"}
{"molecule": "O=C1CCC/C=C\\C[C@H]2C=CC(=O)/C2=C/C[C@H](C/C=C\\CC(F)(F)F)O1", "classification": "False"}
{"molecule": "Cc1cc2c(C(C)C)c(O)c(O)c(C=NCCCCC(=O)O)c2c(O)c1-c1c(C)cc2c(C(C)C)c(O)c(O)c(C=NCCCCC(=O)O)c2c1O", "classification": "False"}
{"molecule": "Cc1ccc(S(=O)(=O)OC2COCOC2C(OS(=O)(=O)c2ccc(C)cc2)C2OCOCC2OS(=O)(=O)c2ccc(C)cc2)cc1 (stereo not drawn)", "classification": "False"}
{"molecule": "CC(C)CCC[C@@H](C)[C@H]1CC[C@H]2[C@@H]3CC[C@H]4C/C(=N/O)CC[C@]4(C)[C@H]3CC[C@]12C", "classification": "False"}
{"molecule": "CC(=O)n1cc([C@H]2CC[C@H](c3cn(C(C)=O)c4ccccc34)c3c2[nH]c2ccccc32)c2ccccc21", "classification": "False"}

====

- System: NCI-H522 lung
- measurement notes: NCI-60 one-dose screen, 48 h
- condition label: 10 µM unless noted
The panel holds about 83,000 compounds, 20% with a hit somewhere; the sample as a whole holds those more often. Activity calls are given as the source filed them. How the source made its calls: active means growth percent below 10; inactive means the rest.
Possible outcomes: y for active, n for inactive

{"compound": "CCOC(=O)CC/C(C)=N\\Nc1ccc([N+](=O)[O-])cc1", "classification": "n"}
{"compound": "CCCCCCOc1ccc(C2(Cl)c3ccccc3N(C)c3ccccc32)cc1", "classification": "n"}
{"compound": "CC(=O)C1CCC(C)=CC1=O (stereo unspecified)", "classification": "n"}
{"compound": "COc1ccc(Cn2c(SC)nc(=O)n(Cc3ccc(Cl)cc3)c2=O)cc1", "classification": "n"}
{"compound": "COc1ncc(-c2ccc3ncnc(Nc4cccc(Cl)c4)c3c2)cc1N(S(C)(=O)=O)S(C)(=O)=O", "classification": "n"}
{"compound": "CCCCNc1nnc(-c2cc(-c3cc4ccccc4o3)nn2-c2ccccc2)o1", "classification": "n"}
{"compound": "CC(=O)n1cc([C@H]2CC[C@H](c3cn(C(C)=O)c4ccccc34)c3c2[nH]c2ccccc32)c2ccccc21", "classification": "n"}
{"compound": "COc1ccc(NC(=O)/N=c2\\oc3c(OC)cccc3cc2-c2cc3ccccc3[nH]2)cc1", "classification": "n"}
{"compound": "CC(C(=O)n1cc(-c2ccccc2)c(-c2ccccc2)c1)c1ccccc1 (stereo unspecified)", "classification": "n"}
{"compound": "COc1ccc(C2CC(c3cccs3)=NN2c2ccc(S(=O)(=O)NC(=O)Nc3ccc(C)cc3)cc2)cc1 (stereo unspecified)", "classification": "n"}
{"compound": "CC(C)CCN(CCCNc1c2c(nc3ccccc13)CCCC2)CCC(C)C", "classification": "n"}
{"compound": "CCCCCCCCCCCCCCCCC(Br)C(=O)O (stereo unspecified)", "classification": "n"}
{"compound": "NC(=S)NN=C1CCCCC1", "classification": "n"}
{"compound": "COc1cccc(NC(=O)c2sc3nc4c(cc3c2N)CCCC4)c1", "classification": "y"}
{"compound": "O=C1CCCCN1CCCCC#Cc1ccccc1C#Cc1ccccn1", "classification": "n"}
{"compound": "Cc1cc(C)c2c(=O)[nH]c(SCC(=O)Nc3cccc(S(=O)(=O)N(C)C)c3)nc2n1", "classification": "n"}
{"compound": "COc1ccc(Cl)cc1NC(N)=S", "classification": "n"}
{"compound": "Nc1c(C(=O)Nc2cccc(C(F)(F)F)c2)sc2nc3c(cc12)CCCCC3", "classification": "n"}
{"compound": "COc1cc(-c2n[nH]nc2-c2ccc3c(c2)OCCO3)cc(OC)c1OC", "classification": "y"}
{"compound": "COc1ccc(-c2nnc(COc3ccc(NC(=O)Nc4ccc(Cl)c(C(F)(F)F)c4)cc3F)o2)cc1", "classification": "y"}
{"compound": "O=C(COc1ccccc1)N1N=C(c2ccc(Cl)cc2)CC1c1c[nH]c2ccccc12 (stereo unspecified)", "classification": "n"}
